Target: α1A adrenoceptor (Rattus norvegicus)
Construct: from tissue; host or cells: rat submaxillary gland membranes
Sequence (P43140 1-466): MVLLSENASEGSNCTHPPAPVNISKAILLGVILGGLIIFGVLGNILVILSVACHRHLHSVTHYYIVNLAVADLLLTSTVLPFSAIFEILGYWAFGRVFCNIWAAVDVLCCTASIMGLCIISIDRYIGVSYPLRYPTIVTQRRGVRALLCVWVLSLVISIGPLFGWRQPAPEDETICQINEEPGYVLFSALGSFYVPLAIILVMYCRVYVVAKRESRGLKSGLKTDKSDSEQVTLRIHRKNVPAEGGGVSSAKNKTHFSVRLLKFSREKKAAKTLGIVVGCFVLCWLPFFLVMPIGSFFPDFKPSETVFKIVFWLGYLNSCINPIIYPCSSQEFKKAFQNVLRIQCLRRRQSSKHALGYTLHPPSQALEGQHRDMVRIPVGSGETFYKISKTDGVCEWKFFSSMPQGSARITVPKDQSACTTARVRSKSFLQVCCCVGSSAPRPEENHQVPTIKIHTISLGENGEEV
Assay: Radioligand binding, [3H] prazosin displacement, rat submaxillary membranes
Details: ratio of binding affinities, rat liver / rat submaxillary
Where a name gives a salt, the structure may show the parent alone.
OUTCOME MEASURE: α1B/α1A
Give bare numbers.

1. CC(C)Oc1ccccc1N1CC[N+]([O-])(CCCN2C(=O)C3CC=CCC3C2=O)CC1 (centres unmarked) [compound 08] :: 722

For every item below, please supply its α1B/α1A.
1. CC(C)Oc1ccccc1N1CCN(CCCN2C(=O)C3CCC(O)CC3C2=O)CC1 (centres unmarked) [Compound No. 20]
2. CC(C)Oc1ccccc1N1CCN(CCCN2C(=O)C3CC(O)C(Cl)CC3C2=O)CC1.Cl (centres unmarked) [Compound No. 28]
3. O=C1C2CC=CCC2C(=O)N1CCC[N+]1([O-])CCN(c2ccccc2O)CC1 (centres unmarked) [Compound No. 22]
4. CCOc1ccc(O)cc1N1CCN(CCCN2C(=O)C3CC=CCC3C2=O)CC1 (centres unmarked) [Compound No. 24, hydrochloride]
5. COc1ccccc1N1CCN(CCCN2C(=O)C3C(c4ccccc4)C=CC(c4ccccc4)C3C2=O)CC1.Cl (centres unmarked) [Compound No. 78]
6. O=C1C2CC3OC3CC2C(=O)N1CCCN1CCN(c2ccccc2OCC(F)(F)F)CC1 (centres unmarked) [Compound No. 32]

Reply text:
328
171
0.7
84
1
283
